The reported measurements were obtained from patent US20110195911A1.

Measured target: Insulin-like growth factor 1 receptor (IGF1R) (UniProt P08069 31-1367, limits assumed)
Sequence (P08069 31-1367 limits assumed): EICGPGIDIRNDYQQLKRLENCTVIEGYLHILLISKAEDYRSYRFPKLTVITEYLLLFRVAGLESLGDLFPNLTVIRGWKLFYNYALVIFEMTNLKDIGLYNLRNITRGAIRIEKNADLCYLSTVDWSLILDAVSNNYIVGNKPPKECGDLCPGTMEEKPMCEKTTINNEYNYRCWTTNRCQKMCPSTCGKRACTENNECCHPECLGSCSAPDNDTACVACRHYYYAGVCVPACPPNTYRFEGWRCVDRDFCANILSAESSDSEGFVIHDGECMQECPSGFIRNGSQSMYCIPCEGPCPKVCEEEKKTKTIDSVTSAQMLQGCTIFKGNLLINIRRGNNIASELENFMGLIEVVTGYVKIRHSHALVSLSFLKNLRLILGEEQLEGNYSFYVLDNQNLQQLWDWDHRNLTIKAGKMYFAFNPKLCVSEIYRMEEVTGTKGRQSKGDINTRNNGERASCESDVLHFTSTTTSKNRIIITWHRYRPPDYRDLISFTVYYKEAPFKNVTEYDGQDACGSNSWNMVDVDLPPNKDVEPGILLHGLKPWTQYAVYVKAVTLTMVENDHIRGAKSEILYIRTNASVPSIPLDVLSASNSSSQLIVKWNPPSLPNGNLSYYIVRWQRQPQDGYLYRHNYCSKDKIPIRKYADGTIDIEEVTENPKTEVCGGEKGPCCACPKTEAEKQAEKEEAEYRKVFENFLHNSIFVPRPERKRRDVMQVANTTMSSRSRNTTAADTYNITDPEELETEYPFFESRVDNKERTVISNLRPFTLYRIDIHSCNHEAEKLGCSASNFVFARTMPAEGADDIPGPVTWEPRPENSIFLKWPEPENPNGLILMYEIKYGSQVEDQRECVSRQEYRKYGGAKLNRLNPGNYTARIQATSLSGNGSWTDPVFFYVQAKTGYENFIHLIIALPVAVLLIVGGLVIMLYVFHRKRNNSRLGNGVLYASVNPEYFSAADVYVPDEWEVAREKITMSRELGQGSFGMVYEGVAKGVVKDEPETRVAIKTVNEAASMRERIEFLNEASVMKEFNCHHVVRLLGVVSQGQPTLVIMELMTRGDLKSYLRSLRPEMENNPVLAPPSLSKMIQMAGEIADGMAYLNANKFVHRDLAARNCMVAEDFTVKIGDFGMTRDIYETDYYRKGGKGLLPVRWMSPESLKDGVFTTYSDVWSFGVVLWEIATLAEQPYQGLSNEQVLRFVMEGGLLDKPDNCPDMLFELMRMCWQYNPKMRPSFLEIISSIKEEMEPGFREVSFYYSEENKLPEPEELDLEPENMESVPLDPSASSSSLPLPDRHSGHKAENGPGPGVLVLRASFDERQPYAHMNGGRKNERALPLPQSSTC
Method description: cell-based or functional assay
The star is where a group is joined. Palmitoyl = CCCCCCCCCCCCCCCC(=O)*
# TGI (µM), MTT assay, MCF-7 cells listing for each entry below
Observation type: TGI (µM), MTT assay, MCF-7 cells

{"Binder": "Palmitoyl-RNNSRLGNGVLF-NH2 (SMILES CCCCCCCCCCCCCCCC(=O)N[C@@H](CCCNC(=N)N)C(=O)N[C@@H](CC(N)=O)C(=O)N[C@@H](CC(N)=O)C(=O)N[C@@H](CO)C(=O)N[C@@H](CCCNC(=N)N)C(=O)N[C@@H](CC(C)C)C(=O)NCC(=O)N[C@@H](CC(N)=O)C(=O)NCC(=O)N[C@H](C(=O)N[C@@H](CC(C)C)C(=O)N[C@@H](Cc1ccccc1)C(N)=O)C(C)C) [peptide 29 (Pal-RNNSRLGNGVLF-NH2)]", "Observation type": "TGI (µM), MTT assay, MCF-7 cells", "Rel": "=", "Value measured": 1.2}
{"Binder": "Palmitoyl-HRKRNNSRLG-NH2 (SMILES CCCCCCCCCCCCCCCC(=O)N[C@@H](Cc1c[nH]cn1)C(=O)N[C@@H](CCCNC(=N)N)C(=O)N[C@@H](CCCCN)C(=O)N[C@@H](CCCNC(=N)N)C(=O)N[C@@H](CC(N)=O)C(=O)N[C@@H](CC(N)=O)C(=O)N[C@@H](CO)C(=O)N[C@@H](CCCNC(=N)N)C(=O)N[C@@H](CC(C)C)C(=O)NCC(N)=O) [peptide 2 (Pal-HRKRNNSRLG-NH2)]", "Observation type": "TGI (µM), MTT assay, MCF-7 cells", "Rel": ">", "Value measured": 5}
{"Binder": "Palmitoyl-RLGNGVLY-NH2 (SMILES CCCCCCCCCCCCCCCC(=O)N[C@@H](CCCNC(=N)N)C(=O)N[C@@H](CC(C)C)C(=O)NCC(=O)N[C@@H](CC(N)=O)C(=O)NCC(=O)N[C@H](C(=O)N[C@@H](CC(C)C)C(=O)N[C@@H](Cc1ccc(O)cc1)C(N)=O)C(C)C) [peptide 20 (Pal-RLGNGVLY-NH2)]", "Observation type": "TGI (µM), MTT assay, MCF-7 cells", "Rel": ">", "Value measured": 5}
{"Binder": "Palmitoyl-HRKRNNSRLGNGVLY-NH2 (SMILES CCCCCCCCCCCCCCCC(=O)N[C@@H](Cc1c[nH]cn1)C(=O)N[C@@H](CCCNC(=N)N)C(=O)N[C@@H](CCCCN)C(=O)N[C@@H](CCCNC(=N)N)C(=O)N[C@@H](CC(N)=O)C(=O)N[C@@H](CC(N)=O)C(=O)N[C@@H](CO)C(=O)N[C@@H](CCCNC(=N)N)C(=O)N[C@@H](CC(C)C)C(=O)NCC(=O)N[C@@H](CC(N)=O)C(=O)NCC(=O)N[C@H](C(=O)N[C@@H](CC(C)C)C(=O)N[C@@H](Cc1ccc(O)cc1)C(N)=O)C(C)C) [peptide 9 (Pal-HRKRNNSRLGNGVLY-NH2)]", "Observation type": "TGI (µM), MTT assay, MCF-7 cells", "Rel": ">", "Value measured": 5}
{"Binder": "Palmitoyl-NNSRLGNGVLY-NH2 (SMILES CCCCCCCCCCCCCCCC(=O)N[C@@H](CC(N)=O)C(=O)N[C@@H](CC(N)=O)C(=O)N[C@@H](CO)C(=O)N[C@@H](CCCNC(=N)N)C(=O)N[C@@H](CC(C)C)C(=O)NCC(=O)N[C@@H](CC(N)=O)C(=O)NCC(=O)N[C@H](C(=O)N[C@@H](CC(C)C)C(=O)N[C@@H](Cc1ccc(O)cc1)C(N)=O)C(C)C) [peptide 15 (Pal-NNSRLGNGVLY-NH2)]", "Observation type": "TGI (µM), MTT assay, MCF-7 cells", "Rel": "=", "Value measured": 1.5}
{"Binder": "Palmitoyl-RNNSRLGNGVL-NH2 (SMILES CCCCCCCCCCCCCCCC(=O)N[C@@H](CCCNC(=N)N)C(=O)N[C@@H](CC(N)=O)C(=O)N[C@@H](CC(N)=O)C(=O)N[C@@H](CO)C(=O)N[C@@H](CCCNC(=N)N)C(=O)N[C@@H](CC(C)C)C(=O)NCC(=O)N[C@@H](CC(N)=O)C(=O)NCC(=O)N[C@H](C(=O)N[C@@H](CC(C)C)C(N)=O)C(C)C) [peptide 30 (Pal-RNNSRLGNGVL-NH2)]", "Observation type": "TGI (µM), MTT assay, MCF-7 cells", "Rel": "=", "Value measured": 3.7}
{"Binder": "Palmitoyl-RNNSRLGNGVLY-NH2 (SMILES CCCCCCCCCCCCCCCC(=O)N[C@@H](CCCNC(=N)N)C(=O)N[C@@H](CC(N)=O)C(=O)N[C@@H](CC(N)=O)C(=O)N[C@@H](CO)C(=O)N[C@@H](CCCNC(=N)N)C(=O)N[C@@H](CC(C)C)C(=O)NCC(=O)N[C@@H](CC(N)=O)C(=O)NCC(=O)N[C@H](C(=O)N[C@@H](CC(C)C)C(=O)N[C@@H](Cc1ccc(O)cc1)C(N)=O)C(C)C) [peptide 16 (Pal-RNNSRLGNGVLY-NH2)]", "Observation type": "TGI (µM), MTT assay, MCF-7 cells", "Rel": "=", "Value measured": 0.5}
{"Binder": "Palmitoyl-RNNSRLGNGVLYASVN-NH2 (SMILES CCCCCCCCCCCCCCCC(=O)N[C@@H](CCCNC(=N)N)C(=O)N[C@@H](CC(N)=O)C(=O)N[C@@H](CC(N)=O)C(=O)N[C@@H](CO)C(=O)N[C@@H](CCCNC(=N)N)C(=O)N[C@@H](CC(C)C)C(=O)NCC(=O)N[C@@H](CC(N)=O)C(=O)NCC(=O)N[C@H](C(=O)N[C@@H](CC(C)C)C(=O)N[C@@H](Cc1ccc(O)cc1)C(=O)N[C@@H](C)C(=O)N[C@@H](CO)C(=O)N[C@H](C(=O)N[C@@H](CC(N)=O)C(N)=O)C(C)C)C(C)C) [peptide 14 (Pal-RNNSRLGNGVLYASVN-NH2)]", "Observation type": "TGI (µM), MTT assay, MCF-7 cells", "Rel": "=", "Value measured": 0.4}
{"Binder": "Palmitoyl-KRNNSRLGNGVLYASVN-NH2 (SMILES CCCCCCCCCCCCCCCC(=O)N[C@@H](CCCCN)C(=O)N[C@@H](CCCNC(=N)N)C(=O)N[C@@H](CC(N)=O)C(=O)N[C@@H](CC(N)=O)C(=O)N[C@@H](CO)C(=O)N[C@@H](CCCNC(=N)N)C(=O)N[C@@H](CC(C)C)C(=O)NCC(=O)N[C@@H](CC(N)=O)C(=O)NCC(=O)N[C@H](C(=O)N[C@@H](CC(C)C)C(=O)N[C@@H](Cc1ccc(O)cc1)C(=O)N[C@@H](C)C(=O)N[C@@H](CO)C(=O)N[C@H](C(=O)N[C@@H](CC(N)=O)C(N)=O)C(C)C)C(C)C) [peptide 13 (Pal-KRNNSRLGNGVLYASVN-NH2)]", "Observation type": "TGI (µM), MTT assay, MCF-7 cells", "Rel": "=", "Value measured": 0.5}
